assay-system: T1, ZFP SBS#1347 (synthetic)
T1 chain: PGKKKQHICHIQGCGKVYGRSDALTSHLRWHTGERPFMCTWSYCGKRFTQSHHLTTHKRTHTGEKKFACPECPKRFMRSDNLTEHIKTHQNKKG
method-notes: EMSA
experimental-parameters: tags: MBP fusion
measure-name: pKd
In simple prose, pKd is minus the logarithm base ten of a concentration in moles per litre.

Req: Give pKd for CAGTGAATG (dsDNA) DNA 1: CAGTGAATG DNA 2: CATTCACTG
Resp: 8.08
